In this section we review reported abundance fitness values for a set of variants.
B1: POU domain, class 3, transcription factor 4, residues 280 to 335; numbered along this chain, P49335 (parent)
chain: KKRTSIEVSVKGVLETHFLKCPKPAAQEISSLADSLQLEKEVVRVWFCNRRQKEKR

- Variants of: B1
- TEST: abundance fitness (aPCA) (normalised: wild type 0, dead -1); higher = more abundant; growth selection in yeast, the domain comes from the species named
- COND: Homo sapiens
MEASUREMENT LABEL: abundance fitness

                            residue_sequence  experimental_result
 0  KKRTSIEVSVKKVLETHFLKCPKPAAQEISSLADSLQLEKEVVRVWFCNRRQKEKR [G12K]               -0.009
 1  KKRTSIEVSVKGVLETHFLFCPKPAAQEISSLADSLQLEKEVVRVWFCNRRQKEKR [K20F]               -0.344
 2  KKRTSIEVSVKGVLWTHFLKCPKPAAQEISSLADSLQLEKEVVRVWFCNRRQKEKR [E15W]                -1.04
 3  KSRTSIEVSVKGVLETHFLKCPKPAAQEISSLADSLQLEKEVVRVWFCNRRQKEKR [K2S]               -0.161
 4  KKRTSIEVSVKGVLETHFLKCPKPAAQEISSLADSLQLEKEVVRQWFCNRRQKEKR [V45Q]                0.156
 5  KKRTSIEVSVKGVLEGHFLKCPKPAAQEISSLADSLQLEKEVVRVWFCNRRQKEKR [T16G]                0.041
 6  KKRTSIEVSVKGVLETHFLKCPKPAAQEISSLADSLQLEKERVRVWFCNRRQKEKR [V42R]               -0.689
 7  KKRTSIEVSVKGVLATHFLKCPKPAAQEISSLADSLQLEKEVVRVWFCNRRQKEKR [E15A]               -0.539
 8  KKRTSIEVSVKGVLETHFLKCPKPAAQEISSLADSLQLEKEVVRVWFMNRRQKEKR [C48M]                0.022
 9  KKRTSIEVSVKGVLETHFLKCPKPAAQEISSLADSLQLEKEVVRPWFCNRRQKEKR [V45P]                -0.38
10  KKRTSIEVSVKGVLETHFLKCPKPAAQEISSLADSLQSEKEVVRVWFCNRRQKEKR [L38S]               -0.815
11  KKRTSIEVSVKGVLETHFLKCPKPAAQEISSLADSLQLEKEVVRVWFCNRRQKAKR [E54A]               -0.788
12  KKRTSIEVSVKGVLETHFLKCPKPAAQEISSLDDSLQLEKEVVRVWFCNRRQKEKR [A33D]                -0.96
13  KKRTSIEVSVKGVLETHFLKCPEPAAQEISSLADSLQLEKEVVRVWFCNRRQKEKR [K23E]                0.142
14  KKMTSIEVSVKGVLETHFLKCPKPAAQEISSLADSLQLEKEVVRVWFCNRRQKEKR [R3M]                0.011
15  KKRTSIEVSVKGVLETHFLKCPKPAAQEISSLADSLQLEKEVVRVWFCNRRQKGKR [E54G]               -0.808
16  KKRTSIEVSVKGVLETHFLKCPKPAAQEISSLADSLQLEKEVVRVWFCNRRLKEKR [Q52L]               -0.055
17  KKRTSIENSVKGVLETHFLKCPKPAAQEISSLADSLQLEKEVVRVWFCNRRQKEKR [V8N]                 1.06
18  KKRTSIECSVKGVLETHFLKCPKPAAQEISSLADSLQLEKEVVRVWFCNRRQKEKR [V8C]               -0.326
19  KKRTSIEVSVKGVLETHFLKCPKPAAQEISSLADSLMLEKEVVRVWFCNRRQKEKR [Q37M]                -0.22
20  KKRTSIEVSVKGVLTTHFLKCPKPAAQEISSLADSLQLEKEVVRVWFCNRRQKEKR [E15T]                -0.82
21  KKRTSIEVSVKGVLETHFLKCTKPAAQEISSLADSLQLEKEVVRVWFCNRRQKEKR [P22T]               -0.796
22  KKRTSIEVSVKGVLETHFLKCPKPAAQEISSLADSLSLEKEVVRVWFCNRRQKEKR [Q37S]               -0.081
23  KKRTSIEVSVKGVLETHFLKCPKPAAQLISSLADSLQLEKEVVRVWFCNRRQKEKR [E28L]               -0.357
24  DKRTSIEVSVKGVLETHFLKCPKPAAQEISSLADSLQLEKEVVRVWFCNRRQKEKR [K1D]               -0.185
25  KKRTSIEVSVKGVLETHFLKCPKPAAQEISSLADSLQLEKEVVRVWFCNRRQKEAR [K55A]                 -0.1
26  KKRTSIEVSVKGVLETHFLQCPKPAAQEISSLADSLQLEKEVVRVWFCNRRQKEKR [K20Q]               -0.578
27  KKRTSQEVSVKGVLETHFLKCPKPAAQEISSLADSLQLEKEVVRVWFCNRRQKEKR [I6Q]               -0.123
28  KKRASIEVSVKGVLETHFLKCPKPAAQEISSLADSLQLEKEVVRVWFCNRRQKEKR [T4A]               -0.145
29  KKRTSIEVSVKGVLETHFLKCPKPAACEISSLADSLQLEKEVVRVWFCNRRQKEKR [Q27C]                -0.16
30  KKRTSIEVSVKGVLETHFMKCPKPAAQEISSLADSLQLEKEVVRVWFCNRRQKEKR [L19M]                0.039
31  KKRTSIEVSVKGVLETHFLKCPKPAAQEISSLADMLQLEKEVVRVWFCNRRQKEKR [S35M]                0.127
32  KKRTSIEVSVKGVLETHFTKCPKPAAQEISSLADSLQLEKEVVRVWFCNRRQKEKR [L19T]               -0.019
33  KKRTSIEVSVKGVLETHFLKCPKPAAQEISSLADSLQLEKEVVRVSFCNRRQKEKR [W46S]               -0.693
34  KKRTSIEVSVKGVLETHFLKCPKPAAQEISSLADSLQLEKKVVRVWFCNRRQKEKR [E41K]               -0.602
35  KKRTSIEVSVKGVGETHFLKCPKPAAQEISSLADSLQLEKEVVRVWFCNRRQKEKR [L14G]               -0.891
36  KKRTSIEVSVKGVLETRFLKCPKPAAQEISSLADSLQLEKEVVRVWFCNRRQKEKR [H17R]               -0.845
37  KKRTSIEVSVKGVLETHFLKCPKPAAQEISSLADSLQKEKEVVRVWFCNRRQKEKR [L38K]               -0.531
38  KKRTSIEVSVKGVLETHFLKCPKPAAQCISSLADSLQLEKEVVRVWFCNRRQKEKR [E28C]               -0.569
39  WKRTSIEVSVKGVLETHFLKCPKPAAQEISSLADSLQLEKEVVRVWFCNRRQKEKR [K1W]                0.033
40  KKRTSIEVSVKGVLETHFLKCPKPAAQEISSLADSLQLEKEVSRVWFCNRRQKEKR [V43S]               -0.852
41  KKRTSIEVSVKGVLETHFLKCPKPAAQEISSLADSLQLEKEVVRRWFCNRRQKEKR [V45R]               -0.062
42  KKRPSIEVSVKGVLETHFLKCPKPAAQEISSLADSLQLEKEVVRVWFCNRRQKEKR [T4P]               -0.178
43  KKRTSIEVSVKGVSETHFLKCPKPAAQEISSLADSLQLEKEVVRVWFCNRRQKEKR [L14S]               -0.693
44  KKRTDIEVSVKGVLETHFLKCPKPAAQEISSLADSLQLEKEVVRVWFCNRRQKEKR [S5D]                0.405
